target entity: T1, TNFR2-His (Sino Biological, 10417-H08H, NP_001057.1 Met1-Asp257, with multi-histidine tag expressed on … (human, UniProt P20333 23-257))
T1 construct: range 1-257; Bought protein; also called recombinant human TNFR2 protein; TNFR2-His antigen; not shown: C-terminal multi-histidine tag
T1 sequence (looked up): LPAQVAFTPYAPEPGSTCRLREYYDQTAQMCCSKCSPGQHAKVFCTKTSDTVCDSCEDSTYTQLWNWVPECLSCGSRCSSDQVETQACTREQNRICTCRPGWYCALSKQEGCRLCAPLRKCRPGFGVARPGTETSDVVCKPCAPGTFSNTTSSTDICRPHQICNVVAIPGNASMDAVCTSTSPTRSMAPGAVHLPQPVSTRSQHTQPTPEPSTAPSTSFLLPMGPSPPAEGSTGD
protocol description: BLI, antibody captured on AHC probe, TNFR2-His in solution
Binarize Kd at 10 nM; below is satisfied, at or above is not satisfied.

11G2huVH5 + huVL3(P07275) (antibody, V domains shown, Humanized 11G2) VH: QVQLVQSGAEVKKPGASVKVSCKASGYTFITYDINWVRQATGQGLEWIGWIYPRDGNTQYAQKFQGRVTMTRNTSISTAYMELSSLRSEDTAVYYCARGDRDYGYFDVWGQGTTVTVSS VL: DIQMTQSPSSLSASVGDRVTITCQASQDISNYLNWYQQKPGKAPKLLIYFKSKLETGVPSRFSGSGSGTDFTFTISSLQPEDIATYYCQQGNTLPLTFGGGTKLEIK; not satisfied
11G2huVH3 + huVL1(P07264) (antibody, V domains shown, Humanized 11G2) VH: QVQLVQSGAEVKKPGASVKVSCKASGYTFITYDINWVRQATGQGLEWIGWIYPRDGNTQFNENFQGRVTMTRNTSISTAYMELSSLRSEDTAVYYCARGDRDYGYFDVWGQGTTVTVSS VL: DIQMTPSTSSLSASVGDRVTITCRASQDISNYLNWYQQKPGKAVKLLIYFKSKLHSGVPSRFSGSGSGTDFTLTISSLQPEDFATYYCQQGNTLPLTFGGGTKLELK; satisfied

In the following, a different binder is considered.
Quick check: does 11G2huVH4 + huVL3(P07274) (antibody, V domains shown, Humanized 11G2) VH: QVQLVQSGAEVKKPGASVKVSCKASGYTFITYDINWVRQAPGQGLEWIGWIYPRDGNTQYAQKFQGRVTMTTDTSTSTAYMELRSLRSDDTAVYYCARGDRDYGYFDVWGQGTTVTVSS VL: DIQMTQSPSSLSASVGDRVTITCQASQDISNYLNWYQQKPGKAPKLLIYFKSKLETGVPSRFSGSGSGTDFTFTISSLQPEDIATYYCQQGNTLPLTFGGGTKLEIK have Kd under 10 nM? not satisfied
